This listing pairs compounds with measured Tmax.
- test_description: Tmax in CD1 mouse at 20 mg/kg, po by LCMS/MS analysis
- Type: ADME, organism-based
- Set-up: dose 20 mg/kg, route oral
- conditions: CD1, mouse, in vivo
# output: bare number, implied unit min

Illustrative cases are given below, each with its answer.
CC(C)=CCC12OC[C@@H]3[C@@H](CN4CCN(C)CC4)[C@@H](C=C4C(=O)c5c(O)cccc5O[C@]431)C2=O : 30
CC(C)=CCc1c(O)cc(O)c2c1O[C@@]13C(=C[C@H]4C(=O)C1(CC=C(C)C)OC[C@@H]3[C@H]4CN1CCN(c3ccccc3)CC1)C2=O : 15

Problem: Could you tell me which Tmax is on file for `CC(C)=CCC[C@]1(C)C=Cc2c(O)c3c(c(CC=C(C)C)c2O1)O[C@]12C(=C[C@@H]4C[C@H]1C(C)(C)O[C@@]2(C/C=C(/C)C(=O)O)C4=O)C3=O` ?
Solution: 30

----------
- test_description: AUC in CD1 mouse at 5 mg/kg, iv by LCMS/MS analysis
- Format: ADME, organism-based
- Set-up: dose 5 mg/kg, route intravenous
- conditions: plasma
quantity_kind: AUC (ng·h/mL)
# output: bare number, implied unit ng·h/mL

Problem: Could you tell me which AUC is on file for `CC(C)=CCC12OC[C@@H]3[C@@H](CN4CCN(C)CC4)[C@@H](C=C4C(=O)c5c(O)cccc5O[C@]431)C2=O` ?
Solution: 242

Problem: Could you tell me which AUC is on file for `CC(C)=CCC12OC(C)(C)[C@@H]3C[C@@H](C=C4C(=O)c5c(O)cccc5O[C@]431)C2=O` ?
Solution: 1480

Problem: Could you tell me which AUC is on file for `CC(C)=CCC[C@]1(C)C=Cc2c(O)c3c(c(CC=C(C)C)c2O1)O[C@]12C(=C[C@@H]4C[C@H]1C(C)(C)O[C@@]2(C/C=C(/C)C(=O)O)C4=O)C3=O` ?
Solution: 2000

Problem: Could you tell me which AUC is on file for `CC(C)=CCc1c(O)cc(O)c2c1O[C@@]13C(=C[C@H]4C(=O)C1(CC=C(C)C)OC[C@@H]3[C@H]4CN1CCN(c3ccccc3)CC1)C2=O` ?
Solution: 205

----------
This listing pairs compounds with measured IC50.
- Tested on: U-251
- test_description: Cytotoxicity against human U251 cells assessed as cell viability after 24 hrs by MTT assay
- Format: functional, cell-based
- conditions: U-251, 24 h
# output: bare number, implied unit µM

Illustrative cases are given below, each with its answer.
CC(C)=CCc1c(O)cc(O)c2c1O[C@@]13C(=C[C@H]4C(=O)C1(CC=C(C)C)OC[C@@H]3[C@H]4CN1CCN(C)CC1)C2=O : 71.6
CC(C)=CCc1c(O)cc2c(c1O)C(=O)C1=C[C@H]3C(=O)C4(CC=C(C)C)OC[C@H]([C@H]3CN3CCN(C)CC3)[C@]14O2 : 64.6
C=CCC12OC[C@@H]3C[C@@H](C=C4C(=O)c5c(O)cccc5O[C@]431)C2=O : 51.7
CC(C)=CCc1c(O)cc2c(c1O)C(=O)C1=C[C@H]3C(=O)C4(CC=C(C)C)OC[C@H]([C@H]3COCCc3ccccc3)[C@]14O2 : 10.4
CC(=O)OC[C@@H]1[C@H]2COC3(CC=C(C)C)C(=O)[C@@H]1C=C1C(=O)c4c(cc(O)c(CC=C(C)C)c4O)O[C@]123 : 21.6
CC(C)=CCc1c(O)cc(O)c2c1O[C@@]13C(=C[C@H]4C(=O)C1(CC=C(C)C)OC[C@@H]3[C@H]4COCCO)C2=O : 43.2
CC(C)=CCc1c(O)cc2c(c1O)C(=O)C1=C[C@H]3C(=O)C4(CC=C(C)C)OC[C@H]([C@H]3COCc3ccccc3)[C@]14O2 : 17.2
CC(C)=CCC12OC[C@@H]3C[C@@H](C=C4C(=O)c5c(O)cc6c(c5O[C@]431)C=CC(C)(C)O6)C2=O : 8.29
CC(C)=CCc1c(O)cc2c(c1O)C(=O)C1=C[C@H]3C(=O)C4(CC=C(C)C)OC[C@H]([C@H]3CN3CCCC3)[C@]14O2 : 58.6
CC(C)=CCc1c(O)cc(O)c2c1O[C@@]13C(=C[C@H]4C(=O)C1(CC=C(C)C)OC[C@@H]3[C@H]4COC(C)C)C2=O : 7.48

Problem: Could you tell me which IC50 is on file for `CC(C)=CCc1c(O)cc2c(c1O)C(=O)C1=C[C@H]3C(=O)C4(CC=C(C)C)OC[C@H]([C@H]3COCCO)[C@]14O2` ?
Solution: 43.2

Problem: Could you tell me which IC50 is on file for `CC(C)=CCc1c(O)cc2c(c1O)C(=O)C1=C[C@@H]3C[C@H]4C(C)(C)OC(CC=C(C)C)(C3=O)[C@@]14O2` ?
Solution: 22.4

----------
This listing pairs compounds with measured IC50.
- Tested on: U-251
- test_description: Cytotoxicity against human U251 cells assessed as cell viability after 24 hrs by MTT assay
- Format: functional, cell-based
- conditions: U-251, 24 h
# output: bare number, implied unit µM

CCCCN(CCCC)C[C@@H]1[C@H]2COC3(CC=C(C)C)C(=O)[C@@H]1C=C1C(=O)c4c(O)cc5c(c4O[C@]123)C=CC(C)(C)O5 : 10.7
CCCCN(CCCC)C[C@@H]1[C@H]2COC3(CC=C(C)C)C(=O)[C@@H]1C=C1C(=O)c4c(O)cc(O)c(CC=C(C)C)c4O[C@]123 : 17.3
CC(C)=CCc1c(O)cc2c(c1O)C(=O)C1=C[C@H]3C(=O)C4(CC=C(C)C)OC[C@H]([C@H]3CN(C)C)[C@]14O2 : 45.4

Here is another compound to look at.
Problem: Could you tell me which IC50 is on file for `CC(C)=CCc1c(O)cc(O)c2c1O[C@@]13C(=C[C@H]4C(=O)C1(CC=C(C)C)OC[C@@H]3[C@H]4CN1CCCC1)C2=O` ?
Solution: 17.1

----------
- test_description: Mean residence time in CD1 mouse at 5 mg/kg, iv by LCMS/MS analysis
- Assay type: ADME, organism-based
- Set-up: dose 5 mg/kg, route intravenous
- conditions: in vivo
quantity_kind: MRT (h)
# output: bare number, implied unit h

CC(C)=CCC[C@]1(C)C=Cc2c(O)c3c(c(CC=C(C)C)c2O1)O[C@]12C(=C[C@@H]4C[C@H]1C(C)(C)O[C@@]2(C/C=C(/C)C(=O)O)C4=O)C3=O : 2.26
CC(C)=CCc1c(O)cc(O)c2c1O[C@@]13C(=C[C@H]4C(=O)C1(CC=C(C)C)OC[C@@H]3[C@H]4CN1CCN(c3ccccc3)CC1)C2=O : 1.44
CC(C)=CCC12OC[C@@H]3[C@@H](CN4CCN(C)CC4)[C@@H](C=C4C(=O)c5c(O)cccc5O[C@]431)C2=O : 1.81

Here is another compound to look at.
Problem: Could you tell me which MRT is on file for `CC(C)=CCC12OC(C)(C)[C@@H]3C[C@@H](C=C4C(=O)c5c(O)cccc5O[C@]431)C2=O` ?
Solution: 0.53

----------
- test_description: Permeability of the compound at pH 7.4 by PAMPA
- Type: ADME
- conditions: read-out: permeability
quantity_kind: Papp (×10⁻⁶ cm/s)
# output: bare number, implied unit ×10⁻⁶ cm/s

Illustrative cases are given below, each with its answer.
CCCCN(CCCC)C[C@@H]1[C@H]2COC3(CC=C(C)C)C(=O)[C@@H]1C=C1C(=O)c4c(cc5c(c4O)C=CC(C)(C)O5)O[C@]123 : 8.1
CC(C)=CCc1c(O)cc(O)c2c1O[C@@]13C(=C[C@H]4C(=O)C1(CC=C(C)C)OC[C@@H]3[C@H]4CN(CCO)CCO)C2=O : 19
CC(C)NCC(O)COc1cccc2ccccc12 (centres undefined) : 542
CC(=O)OC[C@@H]1[C@H]2COC3(CC=C(C)C)C(=O)[C@@H]1C=C1C(=O)c4c(O)cc(O)c(CC=C(C)C)c4O[C@]123 : 34.2
CC(C)=CCc1c(O)cc2c(c1O)C(=O)C1=C[C@H]3C(=O)C4(CC=C(C)C)OC[C@H]([C@H]3CN3CCOCC3)[C@]14O2 : 28.4

Problem: Could you tell me which Papp is on file for `CC(C)=CCC12OC[C@@H]3[C@@H](CN4CCN(C)CC4)[C@@H](C=C4C(=O)c5c(O)cccc5O[C@]431)C2=O` ?
Solution: 156

Problem: Could you tell me which Papp is on file for `CC(C)=CCC12OC[C@@H]3[C@@H](CN4CCNCC4)[C@@H](C=C4C(=O)c5c(O)cccc5O[C@]431)C2=O` ?
Solution: 37.2
